experiment: blockers of ER-stress CHOP reporter expression – cell-based, unfolded protein response, luciferase reporter, primary screen (AID 2732); conditions: CHO-K1 CHOP-promoter luciferase, tunicamycin-induced, 15-18 h; at 10 µM;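 note: 0% = tunicamycin plus vehicle and 100% = wells without tunicamycin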
Hit rate of the full screen: of about 220,000 compounds, about 8,200 (3.7%) were called active.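 Rule for the calls: active = compounds that reduced the stress-induced luciferase reporter signal by more than about 70% of percent inhibition (limit read from the data); inactive = the rest.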 Only a selection was taken, and actives are over-represented in it overall.
The reply should be one of these categories: true (1) = active, false (0) = inactive

molecule	group
NC(=O)c1ccc(-c2csnn2)cc1	false (0)

What was the test verdict on CCOC(=O)c1[nH]c2c(c1C)C(=O)CC(c1ccc(N(C)C)cc1)C2 (stereo unspecified) ?
false (0)

What was the test verdict on CCOC(=O)c1[nH]c2c(c1-c1ccccc1)C(=O)CC(c1ccc(Cl)cc1)C2 (stereo unspecified) ?
true (1)

What was the test verdict on O=C(CSc1nnnn1-c1ccc(O)cc1)c1ccc(F)cc1 ?
false (0)

What was the test verdict on COc1ccc(CC(=O)NC(C)CCc2ccccc2)cc1 (stereo unspecified) ?
false (0)

What was the test verdict on COC(C[C@@H](O)[C@H](C)[C@H](O)COCc1ccccc1)OC ?
false (0)

---

experiment: blockers of ER-stress CHOP reporter expression – cell-based, unfolded protein response, luciferase reporter, primary screen (AID 2732); conditions: CHO-K1 CHOP-promoter luciferase, tunicamycin-induced, 15-18 h; at 10 µM; active compounds read high;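 note: 0% = tunicamycin plus vehicle and 100% = wells without tunicamycin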
About 8,200 (3.7%) of roughly 220,000 compounds were called active. The list comes from a sample in which actives are over-represented; it also holds close analogues and randomly drawn compounds.
Provide the reported inhibition of each item.

Would you please look over these solved cases?
compound	inhibition
CSC1=NC2(C)CCCCC2C12C=CC(=O)C=C2 (stereo not drawn)	-8.01% (inactive)
O=C(Cn1nnc(N2CCCCC2)n1)c1ccc(Cl)c(Cl)c1	6.73% (inactive)
Cc1ccc2c(c1)C(c1ccccc1)N(C(=O)c1ccc(S(=O)(=O)N3CCOCC3)cc1)CC(=O)N2 (stereo not drawn)	18% (inactive)
O=C(Nc1cccc(-c2nc3ccccc3[nH]2)c1)c1ccc(C(=O)Nc2cccc(-c3nc4ccccc4[nH]3)c2)cc1	-38.4% (inactive)
COC(=O)CN1C(C)=Nc2ccc(Br)cc2C1c1ccccc1 (stereo not drawn)	-10.6% (inactive)
CCC(CC)C(=O)N1CC(=O)Nc2ccc(Br)cc2C1c1ccccc1 (stereo not drawn)	81.3% (active)

# map each compound to its inhibition
1. CCc1ccc(Nc2ncc3c(n2)CC(c2ccco2)CC3=O)cc1 (stereo not drawn)
2. O=c1cc(N2CCN(Cc3ccccc3)CC2)c(-c2ccccc2)n[nH]1

78.5% (active)
26.9% (inactive)

# map each compound to its inhibition
1. O=C1CC(Cc2ccc(Cl)cc2)C(=O)N1c1cc(Cl)ccn1 (stereo not drawn)
2. O=C(NNc1cc(Cl)cc(Cl)c1)c1c(F)cccc1Cl
3. O=C(Nc1ccccc1N1CCCCC1)c1ccc2nccnc2c1
4. COC(=O)c1cccc(NS(C)(=O)=O)c1

["7.86% (inactive)", "30.1% (inactive)", "79% (active)", "27.4% (inactive)"]

---

assay: blockers of ER-stress CHOP reporter expression – cell-based, unfolded protein response, luciferase reporter, primary screen (AID 2732); conditions: CHO-K1 CHOP-promoter luciferase, tunicamycin-induced, 15-18 h; at 10 µM; active compounds read high;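 note: 0% = tunicamycin plus vehicle and 100% = wells without tunicamycin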
In all, about 220,000 compounds went through this assay and about 8,200 (3.7%) were called active. Many of the other results were omitted from the sample, so actives are more common in it than they were.
Record met whenever inhibition is at 20% or higher; record not met when lower.

molecule	group
CC(C)c1cc(CN2CCOCC2)cc(C(C)C)c1O	not met
Cc1ccc(C(=O)Cn2cc([N+](=O)[O-])nc2C)cc1	not met
CCCC(=O)Nc1ccc(C(=O)NCCCn2ccnc2)cc1	met
COCCn1c(C)cc(C2=NNC(=Nc3ccc(F)cc3)SC2)c1C	not met
Cc1ccc(-n2c(SCC(=O)Nc3ccc4c(c3)OCO4)nnc2-c2ccoc2C)cc1	met
Cn1nc(C(F)(F)F)cc1-c1ccc(/C=C(\C#N)C(=O)c2cccc(C(F)(F)F)c2)s1	not met
Cc1ccsc1/C=N/NC(=O)Cc1cc(=O)[nH][nH]1	not met
CCOC(=O)c1ccc(N2C(=O)CC(N3CCC(C(=O)OCC)CC3)C2=O)cc1 (configuration not stated)	not met
Cc1cccc(NC(=O)Nc2nnc(-c3ccccc3)o2)c1	not met
CC(C)c1ccc(N2CCN(C(=O)c3ccccc3NC(=O)/C=C(\C(=O)O)c3ccccc3)CC2)cc1	met

inhibition >= 20% for Cc1cccc(N2CCN(C(=O)c3ccccc3NC(=O)C3CCCCC3C(=O)O)CC2)c1 (configuration not stated) ?
not met

inhibition >= 20% for CCCC(=O)Nc1ccc(Cl)c(NC(=O)c2ccc(Br)o2)c1 ?
met

inhibition >= 20% for N/C(=N\S(=O)(=O)c1cc(C(F)(F)F)cc(C(F)(F)F)c1)c1cccs1 ?
met

inhibition >= 20% for C/C=N/N(c1ccccc1)c1ccccc1 ?
not met

inhibition >= 20% for C=CCn1c(C)cc(C2=NNC(=NCC)SC2)c1C ?
met

inhibition >= 20% for CCN(CC)c1ccc(/C=N/NC(=O)c2cnccn2)c(O)c1 ?
met

inhibition >= 20% for CCOc1ccccc1C(=O)NCCCn1ccnc1 ?
not met

inhibition >= 20% for CCCCOC(=O)c1ccc(N2C(=O)CC(N3CCN(C/C=C/c4ccccc4)CC3)C2=O)cc1 (configuration not stated) ?
met

---

experiment: blockers of ER-stress CHOP reporter expression – cell-based, unfolded protein response, luciferase reporter, primary screen (AID 2732); conditions: CHO-K1 CHOP-promoter luciferase, tunicamycin-induced, 15-18 h; at 10 µM; active compounds read high;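 note: 0% = tunicamycin plus vehicle and 100% = wells without tunicamycin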
Among all 220,000 compounds or so, about 8,200 (3.7%) were called active. The entries come from a sample that favours actives as a whole.
Record y whenever inhibition is at 10% or higher; record n when lower.

compound	group
Cc1ccc(Nc2nc(CSc3nnnn3-c3ccccc3)cc(=O)[nH]2)cc1	y
Cc1ccc(-c2nc(CS(=O)CC(=O)N3CCN(c4ncccn4)CC3)c(C)o2)cc1 (centres undefined)	y
O=C(Cc1ccc(Cl)c(Cl)c1)Nc1ccc(SC(F)F)cc1	y
CSc1nnnn1-c1c(C)cc(C)cc1C	n
COc1ccc(Cn2c(O)c(/C=C3/C=CC=N3)c(=O)[nH]c2=O)cc1	n

inhibition >= 10% for Cc1onc(-c2ccc(Cl)cc2)c1-c1ccnn1S(=O)(=O)c1ccc(Cl)cc1 ?
y

inhibition >= 10% for COc1ccc(-c2nc(CS(=O)CC(=O)NCc3ccccn3)c(C)o2)cc1 (centres undefined) ?
n

inhibition >= 10% for CCCCC(CC)CNC(=O)CCCCn1c(=O)[nH]c2ccsc2c1=O (centres undefined) ?
y

inhibition >= 10% for C=C(C)Cn1c(C)cc(C)c(S(=O)(=O)c2ccccc2C)c1=O ?
y

inhibition >= 10% for COc1ccc2c(c1)C(C)=CC(C)(C)N2C(=O)Nc1ccccc1 ?
n

inhibition >= 10% for O=C(N/N=C/c1c(Cl)[nH]c2ccccc12)c1sc2ccccc2c1Cl ?
y

---

experiment: blockers of ER-stress CHOP reporter expression – cell-based, unfolded protein response, luciferase reporter, primary screen (AID 2732); conditions: CHO-K1 CHOP-promoter luciferase, tunicamycin-induced, 15-18 h; at 10 µM;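 note: 0% = tunicamycin plus vehicle and 100% = wells without tunicamycin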
Hit rate of the full screen: of about 220,000 compounds, about 8,200 (3.7%) were called active.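 The calls were made as follows: active = compounds that reduced the stress-induced luciferase reporter signal by more than about 70% of percent inhibition (limit read from the data); inactive = the rest.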 The sample as a whole holds a higher share of actives than the screen did.
The reply should be one of these categories: 1 for active, 0 for inactive

molecule	group
Nc1nc(SCCOc2ccccc2)n[nH]1	0
O=C(c1ccc(=O)oc1)N1CCC(C(O)(c2ccccc2)c2ccccc2)CC1	0
Cc1ccc(C(=O)N(CN2CCCC2=O)c2ccc(F)cc2)cc1	0

What was the test verdict on COc1ccc(NC(=O)Nc2ccc3nsnc3c2)cc1 ?
0

What was the test verdict on C=CCNc1scc(-c2ccccc2)[n+]1CC=C ?
0

What was the test verdict on O=C(Cc1ccccc1)N1N=C(c2ccncc2)CC1(O)C(F)(F)F (stereo unspecified) ?
0

What was the test verdict on CC(OC(=O)c1ccc(NS(=O)(=O)c2ccc3[nH]c(=O)[nH]c3c2)cc1)C(=O)Nc1cccc(Cl)c1Cl (stereo unspecified) ?
0

---

assay: blockers of ER-stress CHOP reporter expression – cell-based, unfolded protein response, luciferase reporter, primary screen (AID 2732); conditions: CHO-K1 CHOP-promoter luciferase, tunicamycin-induced, 15-18 h; at 10 µM;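 note: 0% = tunicamycin plus vehicle and 100% = wells without tunicamycin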
About 8,200 (3.7%) of roughly 220,000 compounds were called active.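 Rule for the calls: active = compounds that reduced the stress-induced luciferase reporter signal by more than about 70% of percent inhibition (limit read from the data); inactive = the rest.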 The list comes from a sample in which actives are over-represented; it also holds close analogues and randomly drawn compounds.
The reply should be one of these categories: yes (1) = active, no (0) = inactive

molecule	group
CCOc1[nH]n(-c2ccc(Cl)cc2)c(=O)c1C=Nc1ccc(O)cc1	yes (1)
CCn1c(=O)c([N+](=O)[O-])c(NCc2ccc3c(c2)OCO3)c2ccccc21	no (0)
Fc1ccccc1/C=N/n1c(-c2cccnc2)n[nH]c1=S	no (0)

What was the test verdict on COc1ccc(CNC(=O)CCC(=O)Nc2nnc(C(C)C)s2)cc1 ?
no (0)
